Values from patent US20220002432A1

Overview of reported Max Binding MFI across a group of binders:
- assayed-target: T1, CD38 on the surface of Daudi cells (human, UniProt P28907 1-300)
- T1 construct: whole, on cells
- procedure-text: flow cytometry, Daudi cells;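 further: purified antibodies incubated with Daudi cells for 1 h at 4 °C, bound antibody detected by fluorescent secondary antibody and read by flow cytometry as MFI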
Number first, unit second: that is the form wanted.

binder	Max Binding MFI
20B5 (antibody, human IgG1, kappa, V domains shown, Rabbit-human chimeric anti-CD38: rabbit VH and VL on human IgG1 and kappa constant regions) VH: QSLEESGGDLVKPGASLTLTCTASGFSFSSRYWICWVRQAPGKGLEWIACIVAGTTNTYYASWAKGRFTISKTSSTTVTLQMTSLTAADTATYFCAGDPRTGSNVGYFNLWGPGTLVTVSS VL: AQVLTQTPSPVSAAVGGTVTINCQASQSVYNNNYLAWFQQKPGQPPKLLIYSASTLASGVPSRFKGSGSGTQFTLTISEVQSDDAATYYCQAYYSGGIYAFGGGTEVVVKR	816 MFI

Now look at this one.
// returns reported Max Binding MFI for input 21G2 (antibody, human IgG1, kappa, V domains shown, Rabbit-human chimeric anti-CD38: rabbit VH and VL on human IgG1 and kappa constant regions) VH: QSVEESGGRLVTPGTPLTLTCTVSGFSLSNYGVSWVRQAPGKGLEWIGYILTSGGTYYANWAQGRFTISKTSTTVDLKITSPTTEDTATYFCGRPKDSDSSAFVSLWGPGTLVTVSS VL: DVVMTQTPASVSEPVGGTVTINCQASESIYSNLAWYQQKPGQPPKLLIYKASTLASGVSSRFKGSGSGTEFTLTISDLESADAATYYCQANHMIVIYGNGFGGGTEVVVKR
2150 MFI
